procedure.text: Toxicity in (Tg(Dusp6:d2EGFP)pt6) transgenic Zebrafish assessed as induction of embryo death at 10 uM incubated for 24 hrs
Design: species or system Danio rerio
measurement.conditions: in vivo, other: incubation
test.readout: mortality at 24 h, 10 µM (%)
Just the number in %, nothing appended.

Please list mortality at 24 h, 10 µM recorded for the compound O=C1/C(=C/c2ccccc2)C(N2CCOCC2)c2ccccc21 (stereo unspecified)
100
